# measured.target: Gi-coupled receptor APJ (HEK cells stably expressing the APJ receptor) (Homo sapiens)
# Construct: expressed in transfected cells; host or cells: HEK cells stably expressing APJ
# Sequence (P35414 1-380): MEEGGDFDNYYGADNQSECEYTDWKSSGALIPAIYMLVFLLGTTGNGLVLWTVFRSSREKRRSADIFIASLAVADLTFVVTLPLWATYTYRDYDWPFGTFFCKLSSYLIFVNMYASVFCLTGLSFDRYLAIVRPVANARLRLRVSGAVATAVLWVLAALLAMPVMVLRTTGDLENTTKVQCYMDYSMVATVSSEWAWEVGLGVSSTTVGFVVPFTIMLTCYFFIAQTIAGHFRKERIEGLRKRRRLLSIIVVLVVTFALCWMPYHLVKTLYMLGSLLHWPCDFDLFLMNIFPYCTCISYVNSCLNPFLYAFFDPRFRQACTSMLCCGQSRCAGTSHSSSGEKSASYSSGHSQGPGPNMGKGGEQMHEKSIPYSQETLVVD
# method.notes: HTRF cAMP assay: inhibition of NKH477 stimulated increase in cAMP
# Assay type: cell-based
# assay.setup: read-out: EC50 value (nM), SEM
# Excerpt: HTRF (homogeneous time resolved fluorescence) is a technology developed by Cisbio Bioassays based on TR-FRET (time-resolved fluorescence resonance energy transfer). Cisbio Bioassays has developed a wide selection of HTRF-based assays compatible with whole cells, thereby enabling functional assays to run under more physiological conditions. The IP-One assays are competitive immunoassays using cryptate-labeled anti-IPI monoclonal antibody and d2-labeled IP1. […]
Non-standard residues stand in square brackets, D forms with d. Residues, ends and D or L forms follow the SMILES beside them. ξ: configuration not given here. *: point of attachment. Palmitoyl = CCCCCCCCCCCCCCCC(=O)*; ξR = N=C(N)NCCCC(N)C(=O)O
Give measured EC50 for each item. Keep answers brief.

Q) Quote EC50 reported for CCCCCCCCCCCCCCCC(=O)N[C@H](C(=O)N[C@@H](CCCNC(=N)N)C(=O)N1CCC[C@H]1C(=O)N[C@H](C(=O)N[C@@H](C)C(=O)N[C@@H](CC(N)=O)C(=O)N[C@@H](C)C(=O)N[C@@H](CCCNC(=N)N)C(=O)N[C@@H](CC(C)C)C(N)=O)C(C)C)C(C)C [Compound 81] (Palmitoyl-VRPVANARL-NH2) please.
A) > 10000 nM

Q) Quote EC50 reported for CCCCCCCCCCCCCCCC(=O)N[C@H](C(=O)N[C@@H](CCCNC(=N)N)C(=O)N1CCC[C@H]1C(=O)N[C@H](C(=O)N[C@@H](C)C(=O)N[C@@H](CC(N)=O)C(=O)N[C@@H](C)C(=O)N[C@@H](CCCNC(=N)N)C(=O)N[C@@H](CC(C)C)C(=O)NC(CCCNC(=N)N)C(=O)N[C@@H](CC(C)C)C(N)=O)C(C)C)C(C)C (stereo partly drawn) [Compound 84] (Palmitoyl-VRPVANARL[ξR]L-NH2) please.
A) > 10000 nM

Q) Quote EC50 reported for CCCCCCCCCCCCCCCC(=O)N[C@H](C(=O)N[C@H](C(=O)N[C@@H](CCCNC(=N)N)C(=O)N1CCC[C@H]1C(=O)N[C@H](C(=O)N[C@@H](C)C(=O)N[C@@H](CC(N)=O)C(=O)N[C@@H](C)C(=O)N[C@@H](CCCNC(=N)N)C(=O)N[C@@H](CC(C)C)C(=O)N[C@@H](CCCNC(=N)N)C(=O)N[C@@H](CC(C)C)C(=O)N[C@@H](CCCNC(=N)N)C(=O)N[C@H](C(=O)N[C@@H](CO)C(=O)NCC(N)=O)C(C)C)C(C)C)C(C)C)[C@@H](C)CC [Compound 77] (Palmitoyl-IVRPVANARLRLRVSG-NH2) please.
A) > 10000 nM
